// reported max % inhibition, Average (Mouse 3T3 cell assay, method m1) for each item listed
Molecular target: T1, mouse TGF-βRII on MC3T3-E1 cells (mouse osteoblasts) (mouse, UniProt Q62312 24-567); further: test concentration or dose not given here
T1 sequence (looked up): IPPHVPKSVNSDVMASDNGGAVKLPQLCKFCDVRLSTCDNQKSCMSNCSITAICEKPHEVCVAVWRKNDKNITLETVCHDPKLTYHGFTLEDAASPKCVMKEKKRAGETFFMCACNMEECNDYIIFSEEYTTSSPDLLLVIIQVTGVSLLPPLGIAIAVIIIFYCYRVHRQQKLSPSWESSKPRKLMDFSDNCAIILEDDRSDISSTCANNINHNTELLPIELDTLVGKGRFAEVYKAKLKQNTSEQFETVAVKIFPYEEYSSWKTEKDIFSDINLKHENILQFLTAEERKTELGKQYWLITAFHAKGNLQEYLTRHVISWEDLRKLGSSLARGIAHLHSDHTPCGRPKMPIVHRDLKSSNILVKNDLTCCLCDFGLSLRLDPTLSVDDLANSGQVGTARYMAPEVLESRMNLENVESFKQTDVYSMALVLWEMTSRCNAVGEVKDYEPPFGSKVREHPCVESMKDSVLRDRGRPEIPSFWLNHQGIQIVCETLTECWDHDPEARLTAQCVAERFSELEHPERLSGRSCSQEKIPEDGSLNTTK
Test: cell-based or functional assay
value-kind: max % inhibition, Average (Mouse 3T3 cell assay, method m1) (%)

INSERT INTO measurements (binder, units_of_measure, measured_result) VALUES
  ('DOM23m-62 (VHH, not shown: small tags and cut ends) VHH: EVQLLESGGGLVQPGGSLRLSCAASGFTFGQESMYWVRQAPGKGLEWVSAISGSGGSTYYADSVKGRFTISRDNSKNTLYLQMNSLRAEDTAVYYCAKSGTRIKQGFDYWGQGTLVTVSS', '%', 78.6),
  ('DOM23m-72 (VHH, not shown: small tags and cut ends) VHH: EVQLLESGGGLVQPGGSLRLSCAASGFTFMDYDMSWVRQAPGKGLEWVSMIREDGGKTYYADSVKGRFTISRDNSKNTLYLQMNSLRAEDTAVYYCAKARVPYRRGHRDNFDYWGQGTLVTVSS', '%', 17.5);

All figures here come from patent US20150361176A1.
